These entries and their values trace back to ChEMBL document CHEMBL1154158.

Test system: HL-60
Test: Cytotoxicity against human mitoxantrone-resistant HL60 cells after 72 hrs
Assay type: functional, cell-based
Conditions: HL-60, 72 h
pIC50: −log10 of the molar value.
Listing of recorded pIC50 by entry.
measurement label: pIC50

>  <compound structure string>
c1ccc2c(c1)ncc1c2[nH]c2ccc3ncsc3c21

>  <study target>
HL-60

>  <experimental value>
4.65

$$$$
>  <compound structure string>
CC(=O)Nc1ccc2c(c1)-c1cccc3nccc(c13)N2

>  <study target>
HL-60

>  <experimental value>
5.26

$$$$

* * *

Tested on: HL-60
Assay: Cytotoxicity against human HL60 cells after 72 hrs
Assay type: functional, cell-based
Conditions: HL-60, 72 h
Each entry below carries its reported IC50.

>  <compound structure string>
c1ccc2c(c1)ncc1c2[nH]c2ccc3ncsc3c21

>  <result units>
µM

>  <IC50>
17.2

$$$$
>  <compound structure string>
CC(=O)Nc1ccc2c(c1)-c1cccc3nccc(c13)N2

>  <result units>
µM

>  <IC50>
4.6

$$$$
